System: B16F0 melanoma tumour
Assay: Biodistribution in B16 melanoma bearing mice
Type: in vivo, C57BL/6J mice
Conditions: B16 melanoma bearing mice, 1 h
Experimental: Animal experiments were performed in compliance with the NHMRC Australian Code of Practice for the care and use of animals for scientific purposes. […] Eleven days (B16F0 melanoma) and 25 days (A375 human melanoma) after tumour transplantation, the [^18F]nicotinamides (0.5-1.5 MBq, 100 μl) and [^123I]nicotinamide (0.37-0.74 MBq, 100 μl) derivatives were injected intravenously via the tail vein into mice (15-18 g). […] Selected organs were weighed and their radioactivity measured with a γ-counter. […]
OBSERVED_PROPERTY: uptake LUNGS (% ID/g)

# example entries with known answers
| COMPOUND | uptake LUNGS, % ID/g |
| --- | --- |
| CCN(CC)CCNC(=O)c1cccnc1F [[^18F]MEL6] | 1.5 |
| CCN(CC)CCNC(=O)c1ccc(F)nc1 [[^18F]MEL2] | 1.632 |

(a) CCN(CC)CCNC(=O)c1ccnc(F)c1 [[^18F]MEL8]
(b) CCCCN(C)CCCCNC(=O)c1ccc(F)nc1 [[^18F]MEL4]
input: Form: Entry with minimum uptake LUNGS (choose one): a / b Lab note: record the label of whichever item you select.
output: a
(a: 1.81 % ID/g, b: 4.49 % ID/g)

* * *

Test system: B16F0 melanoma tumour
Assay: Biodistribution in B16 melanoma bearing mice
Type: in vivo, C57BL/6J mice
Conditions: B16 melanoma bearing mice, 3 h
OBSERVED_PROPERTY: uptake TUMOUR (% ID/g)

# example entries with known answers
| COMPOUND | ASSAY_TARGET | OBSERVED_PROPERTY | MEASUREMENT_UNIT | MEAS_VALUE |
| --- | --- | --- | --- | --- |
| CCN(CC)CCNC(=O)c1ccnc(F)c1 [[^18F]MEL8] | B16F0 melanoma tumour | uptake TUMOUR | % ID/g | 8.80 |
| CCN(CC)CCNC(=O)c1ccc(F)nc1 [[^18F]MEL2] | B16F0 melanoma tumour | uptake TUMOUR | % ID/g | 7.753 |

(1) CCN(CC)CCNC(=O)c1cccnc1F [[^18F]MEL6]
(2) CCCCN(C)CCCCNC(=O)c1ccc(F)nc1 [[^18F]MEL4]
input: Which of the two items, 1 and 2 , has the greater recorded uptake TUMOUR? Lab note: record the label of whichever item you select.
output: 1

* * *

Test system: B16F0 melanoma tumour
Experiment: Biodistribution in B16 melanoma bearing mice
Type: in vivo, C57BL/6J mice
Settings: B16F0 tumour, C57BL/6J mice, 24 h, mean ± S.D., n = 5
OBSERVED_PROPERTY: Organ distribution Thyroid (% ID/organ)

# example entries with known answers
| COMPOUND | MEAS_VALUE |
| --- | --- |
| O=C(c1cncc(I)c1)N1CCN(Cc2ccccc2)CC1 [[^123I]20] | 1.4 |
| CCN(CC)CCNC(=O)c1ccc(I)nc1 [[^123I]14] | 6.5 |

(A) CCCN(CCC)CCCCNC(=O)c1cncc(I)c1 [[^123I]17]
(B) CCN(CC)CCNC(=O)c1cncc(I)c1 [[^123I]11]
input: Which of the two items, A and B , has the greater recorded Organ distribution Thyroid? Lab note: record the label of whichever item you select.
output: A
(A: 6.0 % ID/organ, B: 1.0 % ID/organ)

* * *

System: B16F0 melanoma tumour
Assay: Biodistribution in B16 melanoma bearing mice
Type: in vivo, C57BL/6J mice
Conditions: B16 tumour, C57BL/6J mice, 1 h, mean ± SD, n = 5
OBSERVED_PROPERTY: uptake TUMOUR (% ID/g)

| MOLECULE | ASSAY_TARGET | MEASUREMENT_UNIT | uptake TUMOUR |
| --- | --- | --- | --- |
| CCCN(CCC)CCCCNC(=O)c1cncc(I)c1 [[^123I]17] | B16F0 melanoma tumour | % ID/g | 5.6 |
| CCN(CC)CCNC(=O)c1cncc(I)c1 [[^123I]11] | B16F0 melanoma tumour | % ID/g | 7.8 |

(I) O=C(c1cncc(I)c1)N1CCN(Cc2ccccc2)CC1 [[^123I]20]
(II) CCN(CC)CCNC(=O)c1ccc(I)nc1 [[^123I]14]
input: Form: Entry with minimum uptake TUMOUR (choose one): I / II Lab note: record the label of whichever item you select.
output: II

* * *

System: B16F0 melanoma tumour
Assay: Biodistribution in B16 melanoma bearing mice
Assay type: in vivo, C57BL/6J mice
Conditions: B16 tumour, C57BL/6J mice, 24 h, mean ± SD, n = 5
OBSERVED_PROPERTY: Uptake Lung (% ID/g)

| COMPOUND | MEASUREMENT_UNIT | MEAS_VALUE |
| --- | --- | --- |
| CCCN(CCC)CCCCNC(=O)c1cncc(I)c1 [[^123I]17] | % ID/g | 0.15 |

(1) CCN(CC)CCNC(=O)c1cncc(I)c1 [[^123I]11]
(2) CCN(CC)CCNC(=O)c1ccc(I)nc1 [[^123I]14]
input: Which of the two items, 1 and 2 , has the greater recorded Uptake Lung? Lab note: record the label of whichever item you select.
output: 2
(2: 0.2 % ID/g, 1: 0.03 % ID/g)

* * *

Tested on: B16F0 melanoma tumour
Experiment: Biodistribution in B16 melanoma bearing mice
Format: in vivo, C57BL/6J mice
Details: B16 tumour, C57BL/6J mice, 6 h, mean ± SD, n = 5
OBSERVED_PROPERTY: uptake TUMOUR (% ID/g)

# example entries with known answers
| MOLECULE | MEASUREMENT_UNIT | uptake TUMOUR |
| --- | --- | --- |
| CCN(CC)CCNC(=O)c1cncc(I)c1 [[^123I]11] | % ID/g | 5.9 |
| O=C(c1cncc(I)c1)N1CCN(Cc2ccccc2)CC1 [[^123I]20] | % ID/g | 3.9 |

(1) CCN(CC)CCNC(=O)c1ccc(I)nc1 [[^123I]14]
(2) CCCN(CCC)CCCCNC(=O)c1cncc(I)c1 [[^123I]17]
input: Which of the two items, 1 and 2 , has the greater recorded uptake TUMOUR? Lab note: record the label of whichever item you select.
output: 2
(2: 5.0 % ID/g, 1: 2.3 % ID/g)

* * *

System: B16F0 melanoma tumour
Assay: Biodistribution in B16 melanoma bearing mice
Format: in vivo, C57BL/6J mice
Conditions: B16 tumour, C57BL/6J mice, 24 h
OBSERVED_PROPERTY: tumour standardized uptake value (SUVt)

(1) O=C(c1cncc(I)c1)N1CCN(Cc2ccccc2)CC1 [[^123I]20]
(2) CCN(CC)CCNC(=O)c1cncc(I)c1 [[^123I]11]
(3) CCCN(CCC)CCCCNC(=O)c1cncc(I)c1 [[^123I]17]
(4) CCN(CC)CCNC(=O)c1ccc(I)nc1 [[^123I]14]
input: Returns the items ordered by tumour standardized uptake value (SUVt), from maximum to minimum. Please list each label once, in the requested order.
output: 2, 1, 3, 4
(2: 37, 1: 9, 3: 5.1, 4: 0.5)

* * *

System: B16F0 melanoma tumour
Test: Biodistribution in B16 melanoma bearing mice
Format: in vivo, C57BL/6J mice
Conditions: B16 melanoma bearing mice, 15 min
Method: Animal experiments were performed in compliance with the NHMRC Australian Code of Practice for the care and use of animals for scientific purposes. […] Eleven days (B16F0 melanoma) and 25 days (A375 human melanoma) after tumour transplantation, the [^18F]nicotinamides (0.5-1.5 MBq, 100 μl) and [^123I]nicotinamide (0.37-0.74 MBq, 100 μl) derivatives were injected intravenously via the tail vein into mice (15-18 g). […] Selected organs were weighed and their radioactivity measured with a γ-counter. […]
OBSERVED_PROPERTY: uptake HEART (% ID/g)

# example entries with known answers
| MOLECULE | ASSAY_TARGET | MEASUREMENT_UNIT | MEAS_VALUE |
| --- | --- | --- | --- |
| CCN(CC)CCNC(=O)c1ccc(F)nc1 [[^18F]MEL2] | B16F0 melanoma tumour | % ID/g | 3.153 |
| CCN(CC)CCNC(=O)c1ccnc(F)c1 [[^18F]MEL8] | B16F0 melanoma tumour | % ID/g | 3.51 |

(I) CCCCN(C)CCCCNC(=O)c1ccc(F)nc1 [[^18F]MEL4]
(II) CCN(CC)CCNC(=O)c1cccnc1F [[^18F]MEL6]
input: Form: Entry with minimum uptake HEART (choose one): I / II Lab note: record the label of whichever item you select.
output: I
(I: 2.49 % ID/g, II: 3.7 % ID/g)

* * *

Tested on: B16F0 melanoma tumour
Experiment: Biodistribution in B16 melanoma bearing mice
Assay type: in vivo, C57BL/6J mice
Conditions: B16 tumour, C57BL/6J mice, 24 h, mean ± SD, n = 5
OBSERVED_PROPERTY: uptake HEART (% ID/g)

| MOLECULE | uptake HEART, % ID/g |
| --- | --- |
| CCN(CC)CCNC(=O)c1ccc(I)nc1 [[^123I]14] | 0.10 |

(P) CCN(CC)CCNC(=O)c1cncc(I)c1 [[^123I]11]
(Q) O=C(c1cncc(I)c1)N1CCN(Cc2ccccc2)CC1 [[^123I]20]
(R) CCCN(CCC)CCCCNC(=O)c1cncc(I)c1 [[^123I]17]
input: Hey, can you sort those molecules up there by uptake HEART, smallest first? Please list each label once, in the requested order.
output: Q, P, R
(Q: 0.02 % ID/g, P: 0.04 % ID/g, R: 0.09 % ID/g)
